Values compiled from ChEMBL document CHEMBL3046053.

Test system: Echinochloa crus-galli
assay.notes: Herbicidal activity against barnyard grass Echinochloa crus-galli (barnyard grass) assessed as inhibition of root growth at 100 mg/L relative to untreated control
Type: functional
stated.conditions: read-out: GI
assay.metric: inhibition of growth at 100 µg/mL
Write down the value, and be sure its unit follows.

Some molecules with known inhibition of growth at 100 µg/mL results, for comparison:
>  <molecule>
CCC/N=c1\sc(C(=O)OCC)c(N)n1-c1ccccc1

>  <inhibition of growth at 100 µg/mL>
68.1%

$$$$
>  <molecule>
CCOC(=O)c1s/c(=N\CC/N=c2/sc(C(=O)OCC)c(N)n2-c2ccccc2)n(-c2ccccc2)c1N

>  <inhibition of growth at 100 µg/mL>
58.6%

$$$$
>  <molecule>
CCOC(=O)c1s/c(=N\c2ccccc2)n(-c2ccccc2)c1N

>  <inhibition of growth at 100 µg/mL>
86%

$$$$
>  <molecule>
CCOC(=O)c1s/c(=N\c2ccc(C)cc2)n(-c2ccccc2)c1N

>  <inhibition of growth at 100 µg/mL>
88.4%

$$$$

Find inhibition of growth at 100 µg/mL for "CCCC/N=c1\sc(C(=O)OCC)c(N)n1-c1ccccc1" on Echinochloa crus-galli and write it down.
34.4%

Look up and report measured inhibition of growth at 100 µg/mL (Echinochloa crus-galli) for the following molecule: "CCOC(=O)c1s/c(=N\CCC/N=c2\sc(C(=O)OCC)c(N)n2-c2ccccc2)n(-c2ccccc2)c1N"
58.6%

Quote Echinochloa crus-galli inhibition of growth at 100 µg/mL for entry "CCCCCC/N=c1\sc(C(=O)OCC)c(N)n1-c1ccccc1" .
86%

Provide the reported inhibition of growth at 100 µg/mL (system: Echinochloa crus-galli) for "CCOC(=O)c1s/c(=N\CCCCCC/N=c2/sc(C(=O)OCC)c(N)n2-c2ccccc2)n(-c2ccccc2)c1N"
69%

Give inhibition of growth at 100 µg/mL only, for "CCOC(=O)c1s/c(=N\Cc2ccccc2)n(-c2ccccc2)c1N" , using Echinochloa crus-galli data.
83.7%

Recall the reported inhibition of growth at 100 µg/mL of "CCOC(=O)c1s/c(=N\c2ccc(OC)cc2)n(-c2ccccc2)c1N" when tested on Echinochloa crus-galli.
90.7%

Param request: inhibition of growth at 100 µg/mL | system Echinochloa crus-galli | item "CCOC(=O)c1s/c(=N\Cc2ccccc2Cl)n(-c2ccccc2)c1N"
19.4%

Enter recorded inhibition of growth at 100 µg/mL with Echinochloa crus-galli for "CCOC(=O)c1s/c(=N\c2ccc(Br)cc2)n(-c2ccccc2)c1N" here.
88.4%

Give reported inhibition of growth at 100 µg/mL for O=C(O)COc1ccc(Cl)cc1Cl [2,4-DICHLOROPHENOXYACETIC ACID] (Echinochloa crus-galli)
97.5%
